System: biotinyl-Phe-oxazolone
Assay: self-aminoacylation, catalytic enhancement (BFO) (fold over background); higher = more active; k-Seq, kA / k0A0; sequences stand for … in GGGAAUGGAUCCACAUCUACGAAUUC…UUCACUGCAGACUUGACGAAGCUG
Fewer inactive variants are shown than the library holds.
Reported Property: self-aminoacylation
Reply with just the number.

Please review the following examples before continuing.
>  <Macromolecule Sequence>
ACGUUUGCUAAUAGUCGCAAG [Fam3.1 aminoacylation ribozyme variant]

>  <Reported Measurement>
9.06

$$$$
>  <Macromolecule Sequence>
AUUCAGCUAGUUCAUCGGGUG [Fam2.2 aminoacylation ribozyme variant]

>  <Reported Measurement>
52.3

$$$$
>  <Macromolecule Sequence>
AAGUUUCCUAAUAGUCACAAG [Fam3.1 aminoacylation ribozyme variant]

>  <Reported Measurement>
2.29

$$$$
>  <Macromolecule Sequence>
CCACACUUGAAGCAAUCGGUA [Fam1B.1 aminoacylation ribozyme variant]

>  <Reported Measurement>
0.696

$$$$
>  <Macromolecule Sequence>
AUUCCCCUGGUUAUCGAGUGA [Fam2.1 aminoacylation ribozyme variant]

>  <Reported Measurement>
82.2

$$$$
>  <Macromolecule Sequence>
AUUACCCUGGUCAUCGGGUGA [Fam2.1 aminoacylation ribozyme variant]

>  <Reported Measurement>
711

$$$$

So, AUUCACUUAGCUCAUCGGGUG [Fam2.2 aminoacylation ribozyme variant] ? Its self-aminoacylation was 4.96

So, CUACUUCAGACAAUCCGUCUG [Fam1A.1 aminoacylation ribozyme variant] ? Its self-aminoacylation was 1.86

So, AAGUUUGCUAAUAGUUGUAAG [Fam3.1 aminoacylation ribozyme variant] ? Its self-aminoacylation was 2.23

----------
System: biotinyl-Val-oxazolone
Assay: self-aminoacylation, catalytic enhancement (BVO) (fold over background); higher = more active; k-Seq, kA / k0A0; sequences stand for … in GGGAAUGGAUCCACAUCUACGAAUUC…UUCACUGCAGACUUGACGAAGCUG
Variants at the floor of the assay were thinned out.
Measured self-aminoacylation values are reported for all entries that follow.

So, GUUCCCCUGGUCAUCGAGUGA [Fam2.1 aminoacylation ribozyme variant] ? Its self-aminoacylation was 3.82

So, AUUCACCUCGGUCAUAGGGUG [Fam2.2 aminoacylation ribozyme variant] ? Its self-aminoacylation was 1.19

So, CUACUCCAAACAAUCUGUCUG [Fam1A.1 aminoacylation ribozyme variant] ? Its self-aminoacylation was 0.766

So, AUCACUCUGGUCAUCGAGUGA [Fam2.1 aminoacylation ribozyme variant] ? Its self-aminoacylation was 2.9

So, AUUCCCCUGGUCAUCGAGAGA [Fam2.1 aminoacylation ribozyme variant] ? Its self-aminoacylation was 1.47

So, AUUCAGCUAAGUCAUCGGGUG [Fam2.2 aminoacylation ribozyme variant] ? Its self-aminoacylation was 2.96

So, CCACACAUCAAGCAAUCGGCC [Fam1B.1 aminoacylation ribozyme variant] ? Its self-aminoacylation was 2.9

So, CCACAAUUCAAACAAUCGGUC [Fam1B.1 aminoacylation ribozyme variant] ? Its self-aminoacylation was 1.04

So, UUUACCCUGGUCAACGAGUGA [Fam2.1 aminoacylation ribozyme variant] ? Its self-aminoacylation was 3.5

So, AUUACCCUGGUCUUGGAGUGA [Fam2.1 aminoacylation ribozyme variant] ? Its self-aminoacylation was 1.98

So, CUUACGCUGGUCAUCGAGUGA [Fam2.1 aminoacylation ribozyme variant] ? Its self-aminoacylation was 2.61

So, AUUUCCCUGGUGAUCGAGUGA [Fam2.1 aminoacylation ribozyme variant] ? Its self-aminoacylation was 3.15

So, AAGUUUGCUAGGAGUCGCAAG [Fam3.1 aminoacylation ribozyme variant] ? Its self-aminoacylation was 0.745

So, CCACACUUCAAGCAAUAGGAC [Fam1B.1 aminoacylation ribozyme variant] ? Its self-aminoacylation was 0.537

So, AUUCACCUAGGUCAUUGGGUU [Fam2.2 aminoacylation ribozyme variant] ? Its self-aminoacylation was 1.19

So, CUACUCCAAACAAUCGGUCUG [Fam1A.1 aminoacylation ribozyme variant] ? Its self-aminoacylation was 0.825

----------
Test system: biotinyl-Phe-oxazolone
Experiment: self-aminoacylation, catalytic enhancement (BFO) (fold over background); higher = more active; k-Seq, kA / k0A0; sequences stand for … in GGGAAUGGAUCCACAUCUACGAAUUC…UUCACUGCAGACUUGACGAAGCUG
Fewer inactive variants are shown than the library holds.
Reported Property: self-aminoacylation
Reply with just the number.

>  <Macromolecule Sequence>
UUACUUCAAACAAUCGGUCUG [Fam1A.1 aminoacylation ribozyme variant]

>  <Reported Measurement>
37.4

$$$$
>  <Macromolecule Sequence>
CCACACUUCAAGCAAUCGGUC [Fam1B.1 aminoacylation ribozyme variant]

>  <Reported Measurement>
59.3

$$$$
>  <Macromolecule Sequence>
CCACACUUUAAGCAAUCGGCC [Fam1B.1 aminoacylation ribozyme variant]

>  <Reported Measurement>
1.64

$$$$

Next sequence, please.
Field self-aminoacylation (biotinyl-Phe-oxazolone), entry CUACAAUUCAAGCAAUCGGUC [Fam1B.1 aminoacylation ribozyme variant] : 2.71

----------
Tested on: biotinyl-Val-oxazolone
Assay: self-aminoacylation, catalytic enhancement (BVO) (fold over background); higher = more active; k-Seq, kA / k0A0; sequences stand for … in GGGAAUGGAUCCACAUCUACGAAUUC…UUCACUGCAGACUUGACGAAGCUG
Fewer inactive variants are shown than the library holds.
Measured self-aminoacylation values are reported for all entries that follow.

>  <Macromolecule Sequence>
AAGUUUGAUGAUAGUCGCAAG [Fam3.1 aminoacylation ribozyme variant]

>  <self-aminoacylation>
1.49

$$$$
>  <Macromolecule Sequence>
CCACACUUCAACCAAUCGGCC [Fam1B.1 aminoacylation ribozyme variant]

>  <self-aminoacylation>
2

$$$$
>  <Macromolecule Sequence>
AAGUUUGGUAAUAGCCGCAAG [Fam3.1 aminoacylation ribozyme variant]

>  <self-aminoacylation>
1.01

$$$$
>  <Macromolecule Sequence>
AUUACCCUGGUCAUCGAGCGA [Fam2.1 aminoacylation ribozyme variant]

>  <self-aminoacylation>
2.18

$$$$
>  <Macromolecule Sequence>
ACACACUUCAAGCAAUCGGAC [Fam1B.1 aminoacylation ribozyme variant]

>  <self-aminoacylation>
1.02

$$$$

So, AUUUACGUAGGUCAUCGGGUG [Fam2.2 aminoacylation ribozyme variant] ? Its self-aminoacylation was 3.38

So, AUUCACCUAAGUCACCGGGUG [Fam2.2 aminoacylation ribozyme variant] ? Its self-aminoacylation was 4.88

So, AUUCACCGAGGUCAUCGGAUG [Fam2.2 aminoacylation ribozyme variant] ? Its self-aminoacylation was 1.17

So, CUACUUCAAACGAUGGGUCUG [Fam1A.1 aminoacylation ribozyme variant] ? Its self-aminoacylation was 1

----------
System: biotinyl-Leu-oxazolone
Test: self-aminoacylation, catalytic enhancement (BLO) (fold over background); higher = more active; k-Seq, kA / k0A0; sequences stand for … in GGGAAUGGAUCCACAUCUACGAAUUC…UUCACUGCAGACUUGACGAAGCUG
Variants at the floor of the assay were thinned out.
Reported Property: self-aminoacylation

>  <Macromolecule Sequence>
AUUACCGUGGUCAUCCAGUGA [Fam2.1 aminoacylation ribozyme variant]

>  <self-aminoacylation>
5.29

$$$$
>  <Macromolecule Sequence>
AUUACCCUAGUCAUCGAGCGA [Fam2.1 aminoacylation ribozyme variant]

>  <self-aminoacylation>
1.2

$$$$
>  <Macromolecule Sequence>
CUACUCCAACCAAUCGGUCUG [Fam1A.1 aminoacylation ribozyme variant]

>  <self-aminoacylation>
0.855

$$$$
>  <Macromolecule Sequence>
AAGUUUGCUGAUAGUCGCAAA [Fam3.1 aminoacylation ribozyme variant]

>  <self-aminoacylation>
1.6

$$$$

So, AUUCCCCUAGGUCAUCGGGUU [Fam2.2 aminoacylation ribozyme variant] ? Its self-aminoacylation was 8.02

----------
System: biotinyl-Phe-oxazolone
Experiment: self-aminoacylation, catalytic enhancement (BFO) (fold over background); higher = more active; k-Seq, kA / k0A0; sequences stand for … in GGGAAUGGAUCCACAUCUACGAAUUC…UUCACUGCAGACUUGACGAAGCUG
This sample holds only a part of the variants without activity.
Reported Property: self-aminoacylation
Reply with just the number.

Please review the following examples before continuing.
>  <Macromolecule Sequence>
CUACUUCAAAAAAUCGGUCCG [Fam1A.1 aminoacylation ribozyme variant]

>  <Reported Property>
self-aminoacylation

>  <Reported Measurement>
1.57

$$$$
>  <Macromolecule Sequence>
AUUCACCUAGGUCAUUGGGUU [Fam2.2 aminoacylation ribozyme variant]

>  <Reported Property>
self-aminoacylation

>  <Reported Measurement>
5.73

$$$$
>  <Macromolecule Sequence>
CUAUUUCAAACAUUCGGUCUG [Fam1A.1 aminoacylation ribozyme variant]

>  <Reported Property>
self-aminoacylation

>  <Reported Measurement>
0.835

$$$$
>  <Macromolecule Sequence>
AAGUUUGCUAAUAGUCGAAAG [Fam3.1 aminoacylation ribozyme variant]

>  <Reported Property>
self-aminoacylation

>  <Reported Measurement>
17.9

$$$$
>  <Macromolecule Sequence>
AUUACCCUGGUCGUCGAGUGG [Fam2.1 aminoacylation ribozyme variant]

>  <Reported Property>
self-aminoacylation

>  <Reported Measurement>
2.7

$$$$

Next sequence, please.
So, CCUCACUUCAAGCAAUCGAUC [Fam1B.1 aminoacylation ribozyme variant] ? Its self-aminoacylation was 1.71
